Each entry below carries its reported IC50.
Target: Voltage-gated inwardly rectifying potassium channel KCNH2 (Homo sapiens)
Sequence (Q12809 whole entry): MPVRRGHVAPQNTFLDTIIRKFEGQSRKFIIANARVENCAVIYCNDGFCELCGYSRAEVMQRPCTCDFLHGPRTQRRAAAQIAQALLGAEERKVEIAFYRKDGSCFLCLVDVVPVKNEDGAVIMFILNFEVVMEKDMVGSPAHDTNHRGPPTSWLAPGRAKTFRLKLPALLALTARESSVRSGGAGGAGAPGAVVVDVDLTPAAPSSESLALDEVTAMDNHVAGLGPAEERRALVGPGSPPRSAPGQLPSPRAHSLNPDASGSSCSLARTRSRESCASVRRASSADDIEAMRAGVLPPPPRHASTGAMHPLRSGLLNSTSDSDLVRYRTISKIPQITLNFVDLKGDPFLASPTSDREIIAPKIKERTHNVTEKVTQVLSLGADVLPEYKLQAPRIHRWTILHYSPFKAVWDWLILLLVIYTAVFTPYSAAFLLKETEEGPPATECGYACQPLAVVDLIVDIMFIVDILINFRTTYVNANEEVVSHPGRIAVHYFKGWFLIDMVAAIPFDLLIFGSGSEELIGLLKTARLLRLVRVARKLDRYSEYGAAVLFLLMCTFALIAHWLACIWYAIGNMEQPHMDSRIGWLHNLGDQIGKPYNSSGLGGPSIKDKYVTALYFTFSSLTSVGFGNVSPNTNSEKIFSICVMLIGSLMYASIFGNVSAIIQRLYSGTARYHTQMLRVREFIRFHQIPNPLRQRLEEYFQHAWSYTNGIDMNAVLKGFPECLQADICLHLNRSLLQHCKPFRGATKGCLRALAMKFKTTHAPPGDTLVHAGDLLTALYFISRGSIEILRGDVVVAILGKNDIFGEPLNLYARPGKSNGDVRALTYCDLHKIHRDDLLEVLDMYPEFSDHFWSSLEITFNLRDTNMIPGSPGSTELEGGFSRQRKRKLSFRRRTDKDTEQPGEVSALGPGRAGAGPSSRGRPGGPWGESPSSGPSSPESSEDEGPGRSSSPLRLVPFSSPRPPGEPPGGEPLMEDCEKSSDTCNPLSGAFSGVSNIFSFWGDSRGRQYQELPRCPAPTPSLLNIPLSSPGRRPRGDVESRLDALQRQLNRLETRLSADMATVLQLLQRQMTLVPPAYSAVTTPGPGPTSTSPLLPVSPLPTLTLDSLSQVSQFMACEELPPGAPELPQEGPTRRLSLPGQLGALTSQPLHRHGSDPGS
EXPERIMENTAL_ENDPOINT: IC50 (µM)

chem_smiles=Cl.O=C(N1CCN2CCC1CC2)n1nc(-n2cc(C(F)(F)F)cn2)c2c1COCC2 data_value=4.1
chem_smiles=O=C(N1CCN2CCC1CC2)n1nc(-c2ccc(F)cc2)c2c1COCC2 data_value=2

###

Biological target: Ceramide glucosyltransferase (Homo sapiens)
Sequence (Q16739 whole entry): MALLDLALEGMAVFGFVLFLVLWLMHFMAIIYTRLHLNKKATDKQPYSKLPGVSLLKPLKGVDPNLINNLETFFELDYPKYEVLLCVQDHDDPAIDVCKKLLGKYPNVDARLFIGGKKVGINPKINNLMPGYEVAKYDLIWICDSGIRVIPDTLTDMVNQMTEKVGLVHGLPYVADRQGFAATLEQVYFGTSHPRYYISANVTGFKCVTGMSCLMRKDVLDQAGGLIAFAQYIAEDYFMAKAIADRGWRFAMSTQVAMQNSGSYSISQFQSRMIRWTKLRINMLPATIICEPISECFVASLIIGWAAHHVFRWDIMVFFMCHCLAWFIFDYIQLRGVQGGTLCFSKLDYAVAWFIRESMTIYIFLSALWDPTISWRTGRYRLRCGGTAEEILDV
Assay: Inhibition of GCS in human iPSC derived neurons assessed as reduction in […] GlcCer levels
Type: cell-based, Neuron
EXPERIMENTAL_ENDPOINT: IC50 (nM)

chem_smiles=Cl.O=C(N1CCN2CCC1CC2)n1nc(-n2cc(C(F)(F)F)cn2)c2c1COCC2 unit_string=nM data_value=1.7
